// reported EC50 of IFNγ release, mouse splenocytes per item
Target: T1, Avi/HisMsIL18BPd (recombinant mouse IL-18BP with Avi and poly-His tags) (mouse, biotinylated with BirA on the Avi tag in some assays)
T1 chain: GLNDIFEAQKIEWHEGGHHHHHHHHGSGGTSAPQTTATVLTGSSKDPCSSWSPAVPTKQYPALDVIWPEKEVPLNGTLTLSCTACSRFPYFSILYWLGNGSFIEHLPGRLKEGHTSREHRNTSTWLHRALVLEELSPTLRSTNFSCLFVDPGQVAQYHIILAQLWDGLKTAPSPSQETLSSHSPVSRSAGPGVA
Assay: cell-based or functional assay
All answers are understood in nM, so give the number only.

See these solved cases before continuing.
{"binder": "anti-IL-18BP antibody variant BP-04.22 (antibody, V domains shown) VH: QVQLVQSGAEVKKPGASVKVSCKASGYTFTDYDMHWVRQAPGQGLEWMGIISTYYGVVSYAQKKQGRVTMTRDKSTSTVYMELSSLRSEDTAVYYCARSGTYYYGTRESHALDYWGQGTLVTVSS VL: DIQMTQSPSSVSASVGDRVTITCRASDNVYSNLAWYQQKPGKAPKLLIYGAISLADGVPSRFSGSGSGTDFTLTISSLQPEDFATYYCQHFWGNPYTFGQGTKLEIK", "EC50 of IFNγ release, mouse splenocytes [nM]": 368}
{"binder": "anti-IL-18BP antibody variant BP-04.13 (antibody, V domains shown) VH: QVQLVQSGAEVKKPGASVKVSCKASGYTFTDYDMHWVRQAPGQGLEWMGIISTYYGDVSYAQKFQGRVTMTRDKSTSTVYMELSSLRSEDTAVYYCARSGTYYYGTRESHPFDYWGQGTLVTVSS VL: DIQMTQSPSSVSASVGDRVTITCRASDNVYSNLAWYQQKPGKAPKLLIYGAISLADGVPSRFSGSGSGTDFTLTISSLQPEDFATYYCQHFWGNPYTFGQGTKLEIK", "EC50 of IFNγ release, mouse splenocytes [nM]": 41.4}

As a next step, examine the binder that follows.
Give the reported EC50 of IFNγ release, mouse splenocytes for this binder. anti-IL-18BP antibody variant BP-04.11 (antibody, V domains shown) VH: QVQLVQSGAEVKKPGASVKVSCKASGYTFTDYDMHWVRQAPGQGLEWMGIYSTYYGVVSYAQKFQGRVTMTRDKSTSTVYMELSSLRSEDTAVYYCARSGTYNYGTRESHALDYWGQGTLVTVSS VL: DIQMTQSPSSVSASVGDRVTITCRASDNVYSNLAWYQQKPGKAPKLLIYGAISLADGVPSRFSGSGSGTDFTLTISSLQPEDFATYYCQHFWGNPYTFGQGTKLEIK 3.61
